Origin of values: PubChem BioAssay AID1851

- assay.target: Cytochrome P450 3A4 (Homo sapiens)
- protocol.details: Cytochrome panel assay with activity outcomes
- particulars: recombinant CYP, pro-luciferin dealkylation, luminescence, p450-cyp3a4; series mostly up to 57.1 µM
- Experimental: The P450 gene superfamily is involved in the metabolism and clearance of xenobiotics. This assay used various human CYP P450 isozymes to measure the dealkylation of various pro-luciferin substrates to luciferin. The luciferin is then measured by luminescence after the addition of a luciferase detection reagent. […] Inhibitors and some substrates limit the production of luciferin, and decrease measured luminescence. […] 8, Detection, 1 sec, ViewLux luminescent read […]
Among all 16,000 compounds or so, about 5,100 (32%) were called active. Roughly 25% stayed inconclusive and do not appear here. The call rests on the fitted dose curve; in most records, active means well fitted curve in the direction sought with a large enough effect; inconclusive means small, poorly fitted or top-dose-only effect, or effect the other way; inactive means no such curve, though single readings can be large or run the other way. The list shows a part of the results.
Field 'call' accepts active, inactive

compound	class.assignment
C=C1C(=O)C=C2CN(C(=O)c3ccccc3)[C@@](Cc3ccc(F)cc3)(C(=O)OC)[C@@H]12	active

Outcome logged for `Fc1ccc(Nc2ccnc(-c3ccccc3C(F)(F)F)n2)cc1` in this assay:
active

Give the logged outcome of this assay for the following compound: `COC(=O)[C@@H](NC(=O)Nc1ccc(C(C)=O)cc1)C(C)C`
inactive

Recorded test outcome, item `COc1ccc(C(=O)n2nc(-c3ccccc3)nc2SC)cc1`
inactive

Each compound tested received a call. Report the one for `C[C@H]1C=C2C=C[C@H](C)[C@H](CC[C@@H]3C[C@@H](O)CC(=O)O3)[C@H]2[C@@H](OC(=O)[C@@H](C)CCO)C1` .
active

For this compound, state the assay outcome: `CCN(CCCNC(=O)C1CCN(S(=O)(=O)CC)CC1)c1cccc(C)c1`
active

So what was the verdict on `Cc1nc2nc(-c3ccc(Cl)cc3)nn2c(C)c1Cl` in this test?
inactive

# fetch the recorded call for `COc1ccccc1CNc1ncncc1-c1cccc(NS(C)(=O)=O)c1` here
active

I'd appreciate the recorded outcome for `Cc1cc(N)n2ncc(-c3ccc(Cl)cc3)c2n1` from this test.
active

Hi, sorry to bother you, what did the test record for `COc1ccc(C(=O)N/N=C2/C(=O)c3c(C)cc(C)cc3CC2(C)C)cc1` ?
active

Record request — test call for COc1ccc(C2=NOC(C(=O)NCc3ccco3)C2)cc1OC (centres undefined)
inactive

Test call for this compound, please: `Cc1cc[n+](CC(=O)Nc2cc(C(F)(F)F)ccc2Cl)cc1`
inactive

Entry `Cc1noc(C)c1C(=O)N1CCC2(CCCN(C(=O)NC(C)C)C2)CC1` : call = ?
inactive

Hello, I am checking results. What call was entered for COc1cccc(C2=NOC(C(=O)Nc3ccc(OC)c(OC)c3)C2)c1 (centres undefined) ?
active

Tell me the assay call for `CC(C)CN1CC[C@@]2(CCCN(C(=O)c3cc(C(F)(F)F)cc(C(F)(F)F)c3)C2)C1` please.
active

What was the test verdict on `C=C(NC(=O)C(=C)NC(=O)c1csc(C2=N[C@@H]3c4csc(n4)[C@@H]4NC(=O)c5csc(n5)[C@@H]([C@](C)(O)[C@H](C)O)NC(=O)[C@@H]5CSC(=N5)/C(=C/C)NC(=O)[C@@H]([C@H](C)O)NC(=O)c5csc(n5)[C@]3(CC2)NC(=O)[C@@H](C)NC(=O)C(=C)NC(=O)[C@@H](C)NC(=O)[C@@H]([C@@H](C)CC)N[C@H]2C=Cc3c([C@H](C)O)cc(nc3[C@@H]2O)C(=O)O[C@H]4C)n1)C(N)=O` ?
inactive
